Data provenance: ChEMBL document CHEMBL5346880

measured target: UniProt:P11388
experiment: Inhibition of human DNA topoisomerase 2 alpha assessed as relaxation of supercoiled plasmid pNO1 DNA incubated for 30 mins by fluorescence based analysis
recorded endpoint: log10 IC50 (log10 of the value in µM)
Hey, these are logged values: log10 of IC50, µM being the unit before logging.

Record excerpt, results attached:
> print(dat)
                               query.smiles  endpoint.result
1  COc1ccc(NC(=O)c2[nH]c(C)c(Cl)c2Cl)c(C(=O)NCc2ccc(C(=O)O)cc2)c1             1.83
2  Cc1[nH]c(C(=O)Nc2ccc(C(N)=O)cc2NC(C)C)c(Cl)c1Cl             1.11
3  CCc1[nH]c(C(=O)Nc2ccccc2OCc2cccc(C(=O)NCCN)c2)nc1Cl             1.57
4  O=C(O)c1ccc(CCNC(=O)c2cc(O)ccc2NC(=O)c2cc(Br)c(Br)[nH]2)cc1             1.34
5  Cc1[nH]c(C(=O)Nc2ccccc2OCc2cccc(C(=O)O)c2)c(Cl)c1Cl             1.46

Turning now to a further compound:
Req: Recall the reported log10 IC50 of Cc1[nH]c(C(=O)Nc2ccccc2OCc2cccc(C(=O)NCCN)c2)c(Cl)c1Cl.Cl when tested on UniProt:P11388.
Resp: 0.48

----------
Measured half-life at 100 µM values are reported for all entries that follow.
experiment: Metabolic stability in rat liver S9 fraction assessed as half life at 100 uM measured upto 120 mins in presence of NADPH by HPLC analysis
Type: ADME, subcellular

Record excerpt, results attached:
> print(dat)
                                   compound  endpoint.result
1  CCc1[nH]c(C(=O)Nc2ccc(C(N)=O)cc2OC(C)C)nc1Cl            > 5 h
2  Cc1[nH]c(C(=O)Nc2ccc(C(N)=O)cc2OCc2ccc(C(=O)NCCN)cc2)c(Cl)c1Cl.Cl.Cl           1.67 h
3  COc1ccc(NC(=O)c2[nH]c(C)c(Cl)c2Cl)c(C(=O)NCc2ccc(C(=O)O)cc2)c1            > 5 h
4  Cc1[nH]c(C(=O)Nc2ccccc2OC2CCNCC2)c(Cl)c1Cl.Cl            > 5 h
5  Cc1[nH]c(C(=O)Nc2ccc(C(N)=O)cc2OCc2cccc(C(=O)NCCN)c2)c(Cl)c1Cl.Cl            > 5 h

Req: Note half-life at 100 µM for the compound shown: Cc1[nH]c(C(=O)Nc2ccc(C(=O)NC3CCCNC3)cc2OC(C)C)c(Cl)c1Cl.Cl (stereo not drawn)
Resp: > 5 h

Req: Give a short answer stating reported half-life at 100 µM for Cc1[nH]c(C(=O)Nc2ccccc2OCc2cccc(C(=O)NC3CCCNC3)c2)c(Cl)c1Cl.Cl (stereo not drawn) .
Resp: > 5 h

----------
measured target: DNA topoisomerase 2-alpha (Homo sapiens)
Sequence (P11388 whole entry): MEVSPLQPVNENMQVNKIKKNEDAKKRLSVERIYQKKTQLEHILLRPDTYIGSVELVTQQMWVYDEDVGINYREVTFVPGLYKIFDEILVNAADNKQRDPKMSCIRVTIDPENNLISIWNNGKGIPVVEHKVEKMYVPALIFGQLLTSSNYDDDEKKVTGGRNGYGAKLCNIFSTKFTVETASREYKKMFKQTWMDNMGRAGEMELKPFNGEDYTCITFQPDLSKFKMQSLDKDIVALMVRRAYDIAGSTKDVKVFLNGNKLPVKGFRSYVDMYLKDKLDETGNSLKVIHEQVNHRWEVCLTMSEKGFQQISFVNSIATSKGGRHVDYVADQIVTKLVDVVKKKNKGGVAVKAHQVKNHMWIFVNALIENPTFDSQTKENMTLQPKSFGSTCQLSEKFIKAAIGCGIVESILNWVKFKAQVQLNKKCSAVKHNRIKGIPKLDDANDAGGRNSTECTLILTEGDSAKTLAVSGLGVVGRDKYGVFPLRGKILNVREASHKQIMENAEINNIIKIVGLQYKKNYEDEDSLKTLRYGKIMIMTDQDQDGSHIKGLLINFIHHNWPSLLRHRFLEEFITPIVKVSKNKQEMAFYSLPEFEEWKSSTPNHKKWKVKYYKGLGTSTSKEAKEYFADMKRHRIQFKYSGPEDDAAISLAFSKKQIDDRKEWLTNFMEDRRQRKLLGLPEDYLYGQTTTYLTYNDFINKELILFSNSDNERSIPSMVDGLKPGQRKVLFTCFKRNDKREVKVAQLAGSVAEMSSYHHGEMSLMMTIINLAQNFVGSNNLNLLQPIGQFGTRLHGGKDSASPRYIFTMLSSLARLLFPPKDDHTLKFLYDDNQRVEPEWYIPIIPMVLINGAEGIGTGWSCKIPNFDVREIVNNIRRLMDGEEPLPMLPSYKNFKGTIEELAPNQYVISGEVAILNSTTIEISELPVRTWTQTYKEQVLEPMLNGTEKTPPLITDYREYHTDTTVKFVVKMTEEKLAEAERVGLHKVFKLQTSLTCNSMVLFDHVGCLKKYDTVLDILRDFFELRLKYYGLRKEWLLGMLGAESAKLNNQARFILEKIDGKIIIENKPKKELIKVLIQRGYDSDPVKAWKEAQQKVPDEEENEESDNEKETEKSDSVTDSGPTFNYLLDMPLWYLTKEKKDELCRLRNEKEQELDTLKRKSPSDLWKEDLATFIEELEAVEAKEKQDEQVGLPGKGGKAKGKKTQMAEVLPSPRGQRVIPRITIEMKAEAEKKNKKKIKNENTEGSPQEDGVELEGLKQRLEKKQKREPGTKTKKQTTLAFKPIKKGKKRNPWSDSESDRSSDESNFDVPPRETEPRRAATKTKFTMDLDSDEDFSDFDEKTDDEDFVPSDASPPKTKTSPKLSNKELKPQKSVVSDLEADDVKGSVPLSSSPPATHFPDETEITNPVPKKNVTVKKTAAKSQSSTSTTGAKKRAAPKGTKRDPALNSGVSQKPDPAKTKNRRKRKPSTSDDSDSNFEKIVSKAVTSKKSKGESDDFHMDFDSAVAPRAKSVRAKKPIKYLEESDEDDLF
experiment: Inhibition of human DNA topoisomerase 2 alpha assessed as relaxation of supercoiled plasmid pNO1 DNA incubated for 30 mins by fluorescence based analysis
Rule for this label: yes (1) means IC50 is less than 8 µM; no (0) means IC50 is at least 8 µM.

Field: example entries. Status: answers known.
> print(dat)
                                   compound                           measured.target  class.label
1  Cc1[nH]c(C(=O)Nc2ccc(C(=O)NCCN)cc2OC(C)C)c(Cl)c1Cl.Cl  DNA topoisomerase 2-alpha (Homo sapiens)      yes (1)
2  Cc1[nH]c(C(=O)Nc2ccc(C(N)=O)cc2NCCN)c(Cl)c1Cl.Cl  DNA topoisomerase 2-alpha (Homo sapiens)       no (0)
3  Cc1[nH]c(C(=O)Nc2ccc(C(N)=O)cc2OCC(=O)N2CCCC(N)C2)c(Cl)c1Cl (stereo unspecified)  DNA topoisomerase 2-alpha (Homo sapiens)       no (0)
4  Cc1[nH]c(C(=O)Nc2ccccc2OC2CCN(C(=O)OC(C)(C)C)C2)c(Cl)c1Cl (stereo unspecified)  DNA topoisomerase 2-alpha (Homo sapiens)       no (0)
5  Cc1[nH]c(C(=O)Nc2ccc(C(N)=O)cc2N2CCOCC2)c(Cl)c1Cl  DNA topoisomerase 2-alpha (Homo sapiens)       no (0)

Req: is_below(IC50, 8 µM) for Cc1[nH]c(C(=O)Nc2ccccc2OCc2cccc(C(=O)NCCN)c2)cc1Cl ?
Resp: no (0)

Req: is_below(IC50, 8 µM) for Cc1[nH]c(C(=O)Nc2ccc(C(N)=O)cc2OCC(=O)N2CCCC(NC(=O)OC(C)(C)C)C2)c(Cl)c1Cl (stereo unspecified) ?
Resp: no (0)

Req: Threshold test, IC50 < 8 µM: NCCNC(=O)c1cccc(COc2ccccc2NC(=O)c2cc(Cl)c(Cl)[nH]2)c1
Resp: no (0)

Req: Item Cc1[nH]c(C(=O)Nc2ccc(C(N)=O)cc2OCc2cccc(C(=O)NCCC(=O)O)c2)c(Cl)c1Cl : IC50 beneath 8 µM, strictly?
Resp: yes (1)

Req: Below 8 µM on IC50? Entry Cc1[nH]c(C(=O)Nc2ccc(C(N)=O)cc2N2CCOC(C)C2)c(Cl)c1Cl (stereo unspecified)
Resp: no (0)

Req: Hello, I'm reviewing records and need to know if IC50 of NCCNC(=O)c1cccc(COc2ccccc2NC(=O)c2cc(Br)c(Br)[nH]2)c1 is below 8 µM. Could you check?
Resp: no (0)
